# system-name: AR (Homo sapiens)
# Construct: endogenous in cells; host or cells: VCaP cells
# protocol: VCAP AR Degradation Assay
# Type: cell-based
# assay-context: class symbols *, **
measure-name: Y (AR degradation efficiency, % of DMSO control)

CCc1cc(N2C(=S)N(c3cnc(C#N)c(C(F)(F)F)c3)C(=O)C2(C)C)ccc1OCCN1CCN(CC(=O)Nc2cccc(NC3CCC(=O)NC3=O)c2)[C@@H](C(F)(F)F)C1 (stereo partly drawn) = * (0<Y<=25%)
CCc1cc(N2C(=S)N(c3ccc(C#N)c(C(F)(F)F)c3)C(=O)C2(C)C)ccc1OCCN1C[C@H](C)N(CC(=O)Nc2cccc(NC3CCC(=O)NC3=O)c2)[C@@H](C)C1 (stereo partly drawn) = * (0<Y<=25%)
C[C@@H]1CN(CCOc2ccc(N3C(=S)N(c4ccc(C#N)c(C(F)(F)F)c4)C(=O)C3(C)C)cc2F)C[C@H](C)N1CC(=O)Nc1cccc(NC2CCC(=O)NC2=O)c1 (stereo partly drawn) = * (0<Y<=25%)

----------
# system-name: AR (Homo sapiens, UniProt P10275)
# Construct: endogenous in cells; host or cells: VCaP cells
# Sequence (P10275 1-920): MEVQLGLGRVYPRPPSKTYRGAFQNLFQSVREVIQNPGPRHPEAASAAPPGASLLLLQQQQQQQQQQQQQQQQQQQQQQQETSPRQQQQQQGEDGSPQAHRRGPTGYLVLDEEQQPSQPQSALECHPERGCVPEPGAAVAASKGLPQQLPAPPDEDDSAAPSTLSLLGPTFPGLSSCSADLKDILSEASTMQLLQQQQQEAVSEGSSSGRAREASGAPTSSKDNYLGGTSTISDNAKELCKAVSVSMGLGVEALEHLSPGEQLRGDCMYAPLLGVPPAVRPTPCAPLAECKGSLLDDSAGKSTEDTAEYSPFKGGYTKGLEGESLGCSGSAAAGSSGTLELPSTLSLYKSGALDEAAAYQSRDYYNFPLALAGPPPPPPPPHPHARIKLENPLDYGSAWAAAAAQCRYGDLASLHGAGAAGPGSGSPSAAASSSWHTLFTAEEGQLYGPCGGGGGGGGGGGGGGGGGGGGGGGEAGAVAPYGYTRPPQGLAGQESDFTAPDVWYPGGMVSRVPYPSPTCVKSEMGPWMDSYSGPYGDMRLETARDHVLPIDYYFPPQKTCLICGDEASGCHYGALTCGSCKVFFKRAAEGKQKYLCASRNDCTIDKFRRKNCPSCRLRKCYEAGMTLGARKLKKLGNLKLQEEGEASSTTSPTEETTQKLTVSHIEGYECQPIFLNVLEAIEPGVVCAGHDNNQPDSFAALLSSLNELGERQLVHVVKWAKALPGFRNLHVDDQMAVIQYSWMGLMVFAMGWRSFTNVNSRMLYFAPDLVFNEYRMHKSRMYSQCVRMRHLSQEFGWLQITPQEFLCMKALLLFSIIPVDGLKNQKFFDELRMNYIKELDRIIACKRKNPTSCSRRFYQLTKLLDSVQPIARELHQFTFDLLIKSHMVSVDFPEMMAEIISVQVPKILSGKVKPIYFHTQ
# protocol: VCAP AR Degradation Assay
# Assay type: cell-based
# assay-context: class symbols A-C, read-out: DC50
Counter-ions that a name gives are not always drawn.
Would you kindly list DC50 for each of these molecules?

-- ask Please give the measured DC50 for this molecule: CCc1cc(N2C(=S)N(c3cnc(C#N)c(C(F)(F)F)c3)C(=O)C2(C)C)ccc1OCCN1CCN([C@H](C)C(=O)Nc2cccc(NC3CCC(=O)NC3=O)c2)CC1 (some centres unmarked)
-- reply < 0.1 µM

-- ask Which DC50 reading was recorded for the molecule CC(F)(F)c1cc(N2C(=S)N(c3ccc(C#N)c(C(F)(F)F)c3)C(=O)C2(C)C)ccc1OCCN1CCN(CC(=O)Nc2cc(Cl)cc(NC3CCC(=O)NC3=O)c2)CC1 (centres unmarked) ?
-- reply < 0.1 µM

-- ask Bench note: what DC50 did CCc1cc(N2C(=S)N(c3cnc(C#N)c(C(F)(F)F)c3)C(=O)C2(C)C)ccc1OCCN1C[C@@H]2C[C@H]1CN2CC(=O)Nc1cc(Cl)cc(NC2CCC(=O)NC2=O)c1 (some centres unmarked) show?
-- reply 0.1 to 0.5 µM

-- ask Given CCc1cc(N2C(=S)N(c3ccc(C#N)c(C(F)(F)F)c3)C(=O)C2(C)C)ccc1OCCN1CCN(CC(=O)Nc2cccc(NC3CCC(=O)NC3=O)c2)C2(CC2)C1 (centres unmarked) , state its recorded DC50.
-- reply < 0.1 µM

-- ask Query: DC50; subject: CCC(C)c1cc(N2C(=S)N(c3ccc(C#N)c(C(F)(F)F)c3)C(=O)C2(C)C)ccc1OCCN1CCN(CC(=O)Nc2cccc(NC3CCC(=O)NC3=O)c2)CC1 (centres unmarked) [Example 29, hydrochloride]
-- reply 0.5 to 1 µM

-- ask For the molecule shown here, CCc1cc(N2C(=S)N(c3cnc(C#N)c(C(F)(F)F)c3)C(=O)C2(C)C)ccc1OCCN1CCN(CC(=O)Nc2cc(F)cc(NC3CCC(=O)NC3=O)c2)CC1 (centres unmarked) , give the reported DC50.
-- reply < 0.1 µM

-- ask // DC50 lookup, key: `CCc1cc(N2C(=S)N(c3ccc(C#N)c(C(F)(F)F)c3)C(=O)C2(C)C)ccc1OCCN1C[C@@H](C)N(CC(=O)Nc2cccc(N[C@@H]3CCC(=O)NC3=O)c2)[C@@H](C)C1`
-- reply < 0.1 µM

-- ask Please look up its DC50: C[C@@H]1CN(CCOc2ccc(N3C(=S)N(c4ccc(C#N)c(C(F)(F)F)c4)C(=O)C3(C)C)cc2F)CCN1CC(=O)Nc1cccc(NC2CCC(=O)NC2=O)c1 (some centres unmarked)
-- reply < 0.1 µM

-- ask // returns reported DC50 for input CCc1cc(N2C(=S)N(c3cnc(C#N)c(C(F)(F)F)c3)C(=O)C2(C)C)ccc1OCCN1CCN(CC(=O)Nc2cc(NC3CCC(=O)NC3=O)cc(F)c2F)C(C)(C)C1 (centres unmarked)
-- reply < 0.1 µM

-- ask Dear colleague, I am looking for the recorded DC50 of the following molecule: C[C@@H]1CN(CCOc2ccc(N3C(=S)N(c4cnc(C#N)c(C(F)(F)F)c4)C(=O)C34CCC4)cc2C2CC2)C[C@H](C)N1CC(=O)Nc1cc(F)cc(NC2CCC(=O)NC2=O)c1 (some centres unmarked)
-- reply < 0.1 µM

-- ask Please give the measured DC50 for this molecule: CC1(C)C(=O)N(c2cnc(C#N)c(C(F)(F)F)c2)C(=S)N1c1ccc(OCCN2CCN(CC(=O)Nc3cc(F)cc(NC4CCC(=O)NC4=O)c3)CC2)c(CC(F)F)c1 (centres unmarked)
-- reply < 0.1 µM

-- ask Please look up its DC50: C[C@@H]1CN(CCOc2ccc(N3C(=S)N(c4ccc(C#N)c(C(F)(F)F)c4)C(=O)C3(C)C)cc2CC(F)F)CCN1CC(=O)Nc1cc(Cl)cc(NC2CCC(=O)NC2=O)c1 (some centres unmarked)
-- reply < 0.1 µM

-- ask Please report the recorded DC50 for CCc1cc(N2C(=S)N(c3cnc(C#N)c(C(F)(F)F)c3)C(=O)C2(C)C)ccc1OCCN1CCN(CC(=O)Nc2cc(Cl)cc(NC3CCC(=O)NC3=O)c2)[C@H](C)C1 (some centres unmarked) [Example 144] .
-- reply < 0.1 µM

-- ask Give its DC50 value. Item: CCc1cc(N2C(=S)N(c3ccc(C#N)c(C(F)(F)F)c3)C(=O)C2(C)C)ccc1CCCN1C[C@@H](C)N(CC(=O)Nc2cccc(NC3CCC(=O)NC3=O)c2)C[C@H]1C (some centres unmarked)
-- reply < 0.1 µM

-- ask What value of measured DC50 is listed for CCc1cc(N2C(=S)N(c3ccc(C#N)c(C(F)(F)F)c3)C(=O)C2(C)C)ccc1OCCN1CCN([C@@H](C)C(=O)Nc2cccc(NC3CCC(=O)NC3=O)c2)[C@H](C)C1 (some centres unmarked) ?
-- reply < 0.1 µM

-- ask Given CC1(C)C(=O)N(c2cnc(C#N)c(C(F)(F)F)c2)C(=S)N1c1ccc(OCCN2CCN(CC(=O)Nc3cc(Cl)cc(NC4CCC(=O)NC4=O)c3)CC2)c(CO)c1 (centres unmarked) , state its recorded DC50.
-- reply < 0.1 µM

-- ask State the recorded DC50 for this entry: C[C@@H]1CN(CCOc2ccc(N3C(=S)N(c4cnc(C#N)c(C(F)(F)F)c4)C(=O)C34CCC4)cc2CCF)CCN1CC(=O)Nc1cc(Cl)cc(NC2CCC(=O)NC2=O)c1 (some centres unmarked)
-- reply < 0.1 µM

-- ask Name the reported DC50 value associated with the molecule CCc1cc(N2C(=S)N(c3ccc(C#N)c(C(F)(F)F)c3)C(=O)C2(C)C)ccc1OCCN1CCN(CC(=O)Nc2cccc(NC3CCC(=O)NC3=O)c2Cl)CC1 (centres unmarked) [Example 35, hydrochloride]
-- reply 0.1 to 0.5 µM

-- ask Sample CCc1cc(N2C(=S)N(c3ccc(C#N)c(C(F)(F)F)c3)C(=O)C2(C)C)ccc1OCCN1CCN(CC(=O)Nc2cccc(N[C@H]3CCC(=O)NC3=O)c2)CC1 [Example 27, hydrochloride] — what was its DC50?
-- reply < 0.1 µM

-- ask Entry CCc1cc(N2C(=S)N(c3ccc(C#N)c(C(F)(F)F)c3)C(=O)C2(C)C)ccc1OCCN1CCN(CC(=O)Nc2cc(F)cc(NC3CCC(=O)NC3=O)c2)C2(CC2)C1 (centres unmarked) : reported DC50 = ?
-- reply < 0.1 µM
